Item-by-item account of protein stability index
B1: CSTF3 (parent)
chain: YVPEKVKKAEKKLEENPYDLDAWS

# Variants of: B1
# assay.protocol: protein stability index of a GFP-peptide fusion (GPS, HEK-293T) (PSI 1-6); higher = more stable;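 further: lentivirally expressed fusions sorted by FACS into six bins by GFP to DsRed ratio, PSI derived from sequencing read proportions per bin multiplied by bin number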
# setup.conditions: c terminus: a fixed tail appended
I only need the number, thanks.

Ask: Query: protein stability index; subject: "E14S"
Result: 3.27

Ask: Now this one: "L20T"
Result: 3.25

Ask: Now this one: "A22L"
Result: 3.05

Ask: Now this one: "Y18D"
Result: 5.04

Ask: Now this one: "L13V"
Result: 2.21

Ask: Now this one: "S24C"
Result: 3.61

Ask: Now this one: "E14T"
Result: 2.26

Ask: Now this one: "E10V"
Result: 2.18

Ask: Now this one: "P17W"
Result: 2.5

Ask: Now this one: "K12V"
Result: 2.59

Ask: Now this one: "Y18I"
Result: 2.47
